meta.source: ChEMBL document CHEMBL1135843

MEASUREMENT_NOTES: Inhibition of LPS-induced mouse B-lymphocyte proliferation. The result is expressed as relative IC50 i.e., IC50 of compound/all-trans retinoic acid IC50.
Format: functional
PROPERTY: Relative IC50
Please state the value as a number alone, without comment.

SAMPLE_SMILES	READOUT_VALUE
Cc1ccc(Cl)c2oc(-c3ccc(-c4ccc(C(=O)O)cc4Br)[nH]3)cc12	16

input: // returns reported Relative IC50 for input Cc1cc(C)c2oc(-c3ccc(-c4ccc(C(=O)O)s4)[nH]3)cc2c1C
output: 230

---

Measured Relative IC50, listed per entry for reference.
MEASUREMENT_NOTES: Inhibition of LPS-induced mouse B-lymphocyte proliferation in relation to IC50 of all-trans retinoic acid.
Format: functional

The examples below pair each entry with its known result.
SAMPLE_SMILES	Relative IC50
Cc1ccc(C)c2oc(-c3ccc(-c4ccc(C(=O)O)c5ccccc45)[nH]3)cc12	>1000
CCc1ccc(OC)c2cc(-c3ccc(-c4ccc5cc(C(=O)O)ccc5c4)[nH]3)oc12	>1000
O=C(O)c1ccc(-c2ccc(-c3cc4cc(Cl)ccc4o3)[nH]2)s1	>1000
O=C(O)c1ccc(-c2ccc(-c3cc4c(Cl)ccc(Cl)c4s3)[nH]2)c2ccccc12	>1000

input: // returns reported Relative IC50 for input CCCc1cc(OC)cc2cc(-c3ccc(-c4cc(C)c(C(=O)O)cc4C)[nH]3)oc12
output: >1000

input: Again, but for Cc1cc(-c2ccc(-c3cc4c(C)ccc(C)c4o3)[nH]2)c(C)cc1C(=O)O
output: >1000

input: Again, but for CCCc1cccc2cc(-c3ccc(-c4ccc(C(=O)O)c5ccccc45)[nH]3)sc12
output: >1000

input: Again, but for Cc1ccc(C)c2oc(-c3ccc(-c4ccc5cc(C(=O)O)ccc5c4)[nH]3)cc12
output: >1000

input: Again, but for CCCc1cccc2cc(-c3ccc(-c4cc(C)c(C(=O)O)cc4C)[nH]3)oc12
output: >1000

---

MEASUREMENT_NOTES: Inhibition of LPS-induced mouse B-lymphocyte proliferation in relation to IC50 of all-trans retinoic acid.
Format: functional
PROPERTY: Relative IC50

SAMPLE_SMILES	Relative IC50
CCc1ccc(OC)c2cc(-c3ccc(-c4cc(C)c(C(=O)O)cc4C)[nH]3)oc12	>1000
CCCc1ccc(OC)c2cc(-c3ccc(-c4ccc5cc(C(=O)O)ccc5c4)[nH]3)oc12	>1000
Cc1ccc(Cl)c2oc(-c3ccc(-c4ccc5cc(C(=O)O)ccc5c4)[nH]3)cc12	>1000
O=C(O)c1ccc(-c2ccc(-c3cc4cc(Cl)ccc4o3)[nH]2)c2ccccc12	>1000
O=C(O)c1cccc(-c2ccc(-c3cc4cccc(Cl)c4s3)[nH]2)c1	>1000
O=C(O)c1ccc2cc(-c3ccc(-c4cc5c(Cl)ccc(Cl)c5s4)[nH]3)ccc2c1	>1000
Cc1cc(-c2ccc(-c3cc4cc(Cl)cc(Cl)c4o3)[nH]2)c(C)cc1C(=O)O	>1000
CCc1ccc(OC)c2cc(-c3ccc(-c4ccc(C(=O)O)o4)[nH]3)oc12	>1000

input: // returns reported Relative IC50 for input Cc1ccc(C)c2oc(-c3ccc(-c4ccc(C(=O)O)o4)[nH]3)cc12
output: >1000

---

MEASUREMENT_NOTES: Compound was evaluated for its inhibition of LPS-induced mouse B-lymphocyte proliferation
Type: functional
PROPERTY: pIC50
Friendly reminder that pIC50 comes from taking -log10 of the concentration in mol/L.

input: // returns reported pIC50 for input Cc1cc(C)c2oc(-c3ccc(-c4ccc(C(=O)O)cc4)[nH]3)cc2c1C
output: 8.66
